- experimental-system: FGF14:Nav1.6 C-tail complex (Homo sapiens, UniProt Q92915+Q9UQD0)
- Construct: polymerase chain reaction (PCR) amplification of the FGF14 open reading frame (nt 1–855); C-terminal fragment of Nav1.6 (amino acids 1763–1976) fused with CD4ΔC-tail (amino acids 1–395); expressed in transfected cells
- Sequence (Q92915 1-252 isoform Q92915-2): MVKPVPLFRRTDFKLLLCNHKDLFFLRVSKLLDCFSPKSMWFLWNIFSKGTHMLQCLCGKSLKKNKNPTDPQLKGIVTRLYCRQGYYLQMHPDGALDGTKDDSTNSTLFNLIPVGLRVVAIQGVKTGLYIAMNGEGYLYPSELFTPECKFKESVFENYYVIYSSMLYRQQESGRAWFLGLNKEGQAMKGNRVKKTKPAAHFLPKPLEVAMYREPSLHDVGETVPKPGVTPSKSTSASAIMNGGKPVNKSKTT
- Sequence (Q9UQD0 1763-1976 limits assumed): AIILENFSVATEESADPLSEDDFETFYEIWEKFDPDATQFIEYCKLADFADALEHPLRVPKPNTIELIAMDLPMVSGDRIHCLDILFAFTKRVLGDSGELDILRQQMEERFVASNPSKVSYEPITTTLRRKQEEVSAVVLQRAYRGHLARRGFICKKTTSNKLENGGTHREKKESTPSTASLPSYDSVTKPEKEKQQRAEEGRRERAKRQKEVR
- experimental-details: Split-luciferase complementation assay (LCA) in Clone V double stable HEK293 cells
- Assay type: cell-based
- assay-setup: CC_NCI screening; LCA luminescence, biological replicate Set 1; normalized to on-plate 0.3% DMSO controls (n=16 per plate)
readout-name: Split Luciferase Assay % Lum Set 1 (%)
Record the value in %, omitting the unit from your answer.

Example results:
Nc1nc2[nH]cc(CCc3ccc(C(=O)N[C@@H](CCC(=O)O)C(=O)O)cc3)c2c(=O)[nH]1 [Pemetrexed] : 112.30
O=C1c2c(O)ccc(O)c2C(=O)c2c(NCCNCCO)ccc(NCCNCCO)c21 [Mitoxantrone] : 5.76
CC1(C)CCC(c2ccc(Cl)cc2)=C(CN2CCN(c3ccc(C(=O)NS(=O)(=O)c4ccc(N[C@H](CCN5CCOCC5)CSc5ccccc5)c(S(=O)(=O)C(F)(F)F)c4)cc3)CC2)C1 [ABT-263] : 93.82
CN(C)C/C=C/C(=O)Nc1cc2c(Nc3ccc(F)c(Cl)c3)ncnc2cc1O[C@H]1CCOC1 [Afatinib] : 72.08
Cl.Cn1c(CCCC(=O)O)nc2cc(N(CCCl)CCCl)ccc21 [Bendamustine hydrochloride] : 111.21

Prompt: Look up and state reported Split Luciferase Assay % Lum Set 1 for O=C(NOCC1CC1)c1ccc(F)c(F)c1Nc1ccc(I)cc1Cl [CI 1040, reference compound]
Response: 50.33

Prompt: Look up and state reported Split Luciferase Assay % Lum Set 1 for O=C(/C=C/c1ccc(CN(CCO)CCc2c[nH]c3ccccc23)cc1)NO [NVP LAQ824]
Response: 93.82

====

- experimental-system: FGF14:Nav1.6 C-tail complex (Homo sapiens, UniProt Q92915+Q9UQD0)
- Construct: polymerase chain reaction (PCR) amplification of the FGF14 open reading frame (nt 1–855); C-terminal fragment of Nav1.6 (amino acids 1763–1976) fused with CD4ΔC-tail (amino acids 1–395); expressed in transfected cells
- experimental-details: Split-luciferase complementation assay (LCA) in Clone V double stable HEK293 cells
- Assay type: cell-based
- assay-setup: average of Set 1 and Set 2; normalized to 0.3% DMSO controls
Counter-ions that a name gives are not always drawn.
readout-name: Split Luciferase Assay %Lum Avg (%)
Record the value in %, omitting the unit from your answer.

Example results:
COc1ccc(OC)c2c(=S)c3ccccc3[nH]c12 : 85.21
Fc1ccc(Cl)cc1-c1nc(Nc2ccncc2)c2nccnc2n1 : 95.16
N.N.O=C([O-])C1(C(=O)[O-])CCC1.[Pt+2] : 112.28
CN(Cc1cnc2nc(N)nc(N)c2n1)c1ccc(C(=O)N[C@@H](CCC(=O)O)C(=O)O)cc1 [Methotrexate] : 106.01
COc1cc2c(Nc3ccc(NC(=O)c4ccccc4)cc3)ncnc2cc1OCCCN1CCOCC1 : 100.03

Prompt: Would you please give the reported Split Luciferase Assay %Lum Avg of Cl.N[C@@H](Cc1ccc(N(CCCl)CCCl)cc1)C(=O)O [Melphalan hydrochloride] with FGF14:Nav1.6 C-tail complex (Homo sapiens, UniProt Q92915+Q9UQD0)?
Response: 89.26

Prompt: Would you please give the reported Split Luciferase Assay %Lum Avg of CS(=O)(=O)c1ccc(C2=C(c3ccccc3)C(=O)OC2)cc1 with FGF14:Nav1.6 C-tail complex (Homo sapiens, UniProt Q92915+Q9UQD0)?
Response: 87.57

Prompt: Would you please give the reported Split Luciferase Assay %Lum Avg of CS(=O)(=O)OCCCCOS(C)(=O)=O with FGF14:Nav1.6 C-tail complex (Homo sapiens, UniProt Q92915+Q9UQD0)?
Response: 103.09

Prompt: Would you please give the reported Split Luciferase Assay %Lum Avg of NC(=O)c1ncn([C@@H]2O[C@H](CO)[C@@H](O)[C@H]2O)c1N with FGF14:Nav1.6 C-tail complex (Homo sapiens, UniProt Q92915+Q9UQD0)?
Response: 105.31

Prompt: Would you please give the reported Split Luciferase Assay %Lum Avg of NCC(=O)CCC(=O)O [Aminolevulinic acid hydrochloride] with FGF14:Nav1.6 C-tail complex (Homo sapiens, UniProt Q92915+Q9UQD0)?
Response: 104.24
